- measured-target: HCV subgenomic replicon SGR-Feo-JFH-1 (genotype 2a)
- test-method-notes: HCV subgenomic replicon replication, luciferase assay (genotype 2a)
- Assay type: cell-based, hepatitis C virus
- measurement-parameters: Huh-7.5 harbouring SGR-Feo-JFH-1 genotype 2a; 48 h treatment; 2.5-20 μM; luciferase; triplicate in three independent assays; read-out: EC50 (50% effective concentration for HCV)
- Procedure: Figure 2 Hecate and its derivative-peptide effects on subgenomic HCV genotype 2a replication and hepatotoxicity. (A) Hecate. (B) Lys- Hecate. (C) GA-Hecate. (D) GA2-Hecate. (E) Acetyl-Hecate. (F) Glu-Hecate. […] Cell lines harboring subgenomic or genomic replicons were seeded at 5 × 10^3 cells /well on 96-well plates and the compounds were added 24 h post-seeding, in a concentration range between 2.5–20 μM. […] Luciferase activity was measured using a luminometer (FLUOstar Omega/BMG LABTECH, Offenburg, BW, DE). […]
Where no end group is shown, it is not given here.
readout-type: EC50 (µM)

[[record]]
substance = "Ac-FALALKALKKALKKLKKALKKAL-NH2 [Acetyl-Hecate]"
measured_target = "HCV subgenomic replicon SGR-Feo-JFH-1 (genotype 2a)"
readout_type = "EC50"
measured = 3.79

[[record]]
substance = "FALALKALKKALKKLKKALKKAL-NH2 [Hecate]"
measured_target = "HCV subgenomic replicon SGR-Feo-JFH-1 (genotype 2a)"
readout_type = "EC50"
measured = 8.57

[[record]]
substance = "H-EFALALKALKKALKKLKKALKKAL-NH2 [Glu-Hecate]"
measured_target = "HCV subgenomic replicon SGR-Feo-JFH-1 (genotype 2a)"
readout_type = "EC50"
measured = 3.3

